- experimental_protocol: Plasma concentration in mouse at 12.5 mg/kg, po at 0.5 hrs
- Format: ADME, organism-based
metric: concentration at 0.5 h (nM)
The answer is to be given in nM; state only the numeric part.

Lab note: CNc1ncc2cc(-c3ccc(-n4cccc(C)c4=O)cc3Cl)c(=O)n(CCC3(F)CN(C)C3)c2n1 gave concentration at 0.5 h of 1890

====

- subject_of_test: Serine/threonine-protein kinase PAK 2 (Homo sapiens, UniProt Q13177)
- Sequence (Q13177 whole entry): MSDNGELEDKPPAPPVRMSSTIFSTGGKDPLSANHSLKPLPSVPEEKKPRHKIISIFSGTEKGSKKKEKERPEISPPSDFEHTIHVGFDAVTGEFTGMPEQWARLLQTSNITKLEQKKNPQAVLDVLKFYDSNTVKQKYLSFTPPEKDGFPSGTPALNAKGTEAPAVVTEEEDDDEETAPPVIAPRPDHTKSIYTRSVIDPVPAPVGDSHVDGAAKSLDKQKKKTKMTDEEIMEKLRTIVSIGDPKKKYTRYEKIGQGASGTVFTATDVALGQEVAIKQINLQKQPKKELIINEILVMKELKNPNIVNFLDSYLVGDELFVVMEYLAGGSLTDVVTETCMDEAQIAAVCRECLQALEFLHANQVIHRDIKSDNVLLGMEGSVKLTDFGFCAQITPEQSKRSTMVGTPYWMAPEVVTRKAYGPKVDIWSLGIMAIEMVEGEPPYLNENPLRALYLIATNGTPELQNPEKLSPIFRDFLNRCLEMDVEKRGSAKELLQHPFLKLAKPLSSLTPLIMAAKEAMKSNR
- experimental_protocol: Inhibition of human recombinant PAK2 assessed as phosphorylation of coumarin labeled FRET peptide substrate at Ser/Thr19 preincubated for 10 mins followed by ATP addition measured after 60 mins by Z'-LYTE assay
Kindly supply the reported Ki values for the records listed here.
The answer is to be given in µM; state only the numeric part.

Lab note: CNc1ncc2cc(-c3ccc(-n4cccc(C)c4=O)cc3Cl)c(=O)n(CCC3(F)CN(C)C3)c2n1 gave Ki of 0.002

Lab note: CCn1c(=O)c(-c2ccc(-n3cccc(C)c3=O)cc2Cl)cc2cnc(NC3COC3)nc21 gave Ki of 0.021

Lab note: Cc1nccn(-c2ccc(-c3cc4cnc(NC5COC5)nc4n(CC4CCNCC4(F)F)c3=O)c(Cl)c2)c1=O (single isomer, unassigned) gave Ki of 0.0046

Lab note: CNc1ncc2cc(-c3ccc(-n4cncc(C)c4=O)cc3Cl)c(=O)n(CCOC)c2n1 gave Ki of 0.039

Lab note: CNc1ncc2cc(-c3ccc(-n4ccc(C)cc4=O)cc3Cl)c(=O)n(C[C@H]3CNCCO3)c2n1 gave Ki of 2.3

Lab note: Cc1cncc(-c2ccc(-c3cc4cncnc4n(C[C@H]4CC[C@H](N)CC4)c3=O)c(Cl)c2)n1 gave Ki of 0.94

Lab note: CCc1cccn(-c2ccc(-c3cc4cnc(NC)nc4n(C[C@H]4CNCCO4)c3=O)c(Cl)c2)c1=O gave Ki of 0.0095

Lab note: CNc1ncc2cc(-c3ccc(-n4cccc(C)c4=O)cc3C3CC3)c(=O)n(C[C@@H]3CNCCO3)c2n1 gave Ki of 3.67

====

Kindly supply the reported Selectivity ratio values for the records listed here.
- Species on record: Homo sapiens
- experimental_protocol: Selectivity for human recombinant N-terminal 6-His-tagged PAK1 kinase domain (249 to 545 residues) over LCK (unknown origin)
Reply with just the number.

Lab note: CNc1ncc2cc(-c3ccccc3Cl)c(=O)n(CCCN)c2n1 gave Selectivity ratio of 0.4

Lab note: CNc1ncc2cc(-c3ccc(-n4ccccc4=O)cc3Cl)c(=O)n(CCCN)c2n1 gave Selectivity ratio of 86

Lab note: CNc1ncc2cc(-c3ccc(-n4cccc(C)c4=O)cc3Cl)c(=O)n(CC(F)(F)CN)c2n1 gave Selectivity ratio of 56

Lab note: CNc1ncc2cc(-c3ccc(-n4cncc(C)c4=O)cc3Cl)c(=O)n(CCCN)c2n1 gave Selectivity ratio of 282

Lab note: CNc1ncc2cc(-c3ccc(-n4ccn(C)c4=O)cc3Cl)c(=O)n(CCCN)c2n1 gave Selectivity ratio of 76

Lab note: CNc1ncc2cc(-c3ccc(-c4cccc(C)n4)cc3Cl)c(=O)n(CCCN)c2n1 gave Selectivity ratio of 53

Lab note: CNc1ncc2cc(-c3ccc(-n4cccc(C)c4=O)cc3Cl)c(=O)n(CCO)c2n1 gave Selectivity ratio of 63

Lab note: CCn1c(=O)c(-c2ccc(-n3cccc(C)c3=O)cc2Cl)cc2cnc(NC3COC3)nc21 gave Selectivity ratio of 123

Lab note: CNc1ncc2cc(-c3ccc(-n4cccc(C)c4=O)cc3Cl)c(=O)n(CCC3(F)CN(C)C3)c2n1 gave Selectivity ratio of 57

Lab note: CNc1ncc2cc(-c3ccc(-n4ccnc(C)c4=O)cc3Cl)c(=O)n(CCCN)c2n1 gave Selectivity ratio of 429

Lab note: CNc1ncc2cc(-c3ccc(-n4cccc(C)c4=O)cc3Cl)c(=O)n(CCOC)c2n1 gave Selectivity ratio of 38

Lab note: CNc1ncc2cc(-c3ccc(-n4cccc(C)c4=O)cc3Cl)c(=O)n(CCCN)c2n1 gave Selectivity ratio of 221

Lab note: CCn1c(=O)c(-c2ccc(-n3cccc(C)c3=O)cc2Cl)cc2cnc(NC)nc21 gave Selectivity ratio of 53

Lab note: COCCn1c(=O)c(-c2ccc(-n3cccc(C)c3=O)cc2Cl)cc2cnc(NC3COC3)nc21 gave Selectivity ratio of 158

Lab note: CNc1ncc2cc(-c3ccc(-n4cccc(C)c4=O)cc3Cl)c(=O)n(CCOC3CN(C)C3)c2n1 gave Selectivity ratio of 86

Lab note: CNc1ncc2cc(-c3ccc(N4CCN(C)C4=O)cc3Cl)c(=O)n(CCCN)c2n1 gave Selectivity ratio of 10

Lab note: CNc1ncc2cc(-c3ccc(N4CCCC4=O)cc3Cl)c(=O)n(CCCN)c2n1 gave Selectivity ratio of 25

Lab note: CNc1ncc2cc(-c3ccc(-n4cccc(C)c4=O)cc3Cl)c(=O)n(CC3CCNCC3(F)F)c2n1 (racemic) gave Selectivity ratio of 20

====

- experimental_protocol: Kinetic solubility of the compound at pH 7.4
- Type: physicochemical
- test_context: buffer, read-out: Kinetic_solubility
metric: solubility kinetic (µM)
The answer is to be given in µM; state only the numeric part.

Lab note: CNc1ncc2cc(-c3ccc(-n4cccc(C)c4=O)cc3Cl)c(=O)n(CCCN)c2n1 gave solubility kinetic of 82

Lab note: CNc1ncc2cc(-c3ccc(-n4cccc(C)c4=O)cc3Cl)c(=O)n(CCC3(F)CN(C)C3)c2n1 gave solubility kinetic of 117

Lab note: CNc1ncc2cc(-c3ccc(-n4cccc(C)c4=O)cc3Cl)c(=O)n(CCOC)c2n1 gave solubility kinetic of 80

Lab note: CNc1ncc2cc(-c3ccc(-n4cccc(C)c4=O)cc3Cl)c(=O)n(CCO)c2n1 gave solubility kinetic of 15

Lab note: CNc1ncc2cc(-c3ccc(-n4cccc(C)c4=O)cc3Cl)c(=O)n(CC(F)(F)CN)c2n1 gave solubility kinetic of 51

Lab note: CCn1c(=O)c(-c2ccc(-n3cccc(C)c3=O)cc2Cl)cc2cnc(NC)nc21 gave solubility kinetic of 2.5

Lab note: CNc1ncc2cc(-c3ccc(-n4cccc(C)c4=O)cc3Cl)c(=O)n(CCOC3CN(C)C3)c2n1 gave solubility kinetic of 71

Lab note: CCn1c(=O)c(-c2ccc(-n3cccc(C)c3=O)cc2Cl)cc2cnc(NC3COC3)nc21 gave solubility kinetic of 2.6

Lab note: COCCn1c(=O)c(-c2ccc(-n3cccc(C)c3=O)cc2Cl)cc2cnc(NC3COC3)nc21 gave solubility kinetic of 38

Lab note: CNc1ncc2cc(-c3ccc(-n4cccc(C)c4=O)cc3Cl)c(=O)n(CC3CCNCC3(F)F)c2n1 (racemic) gave solubility kinetic of 115

====

- experimental_protocol: Fraction unbound in mouse plasma at 25 mg/kg, ip
- Type: ADME, organism-based
metric: fraction unbound

Lab note: N[C@H]1CC[C@H](CNc2nccc(Nc3cc(C(F)(F)F)ccn3)n2)CC1 gave fraction unbound of 0.063

====

- experimental_protocol: Fraction unbound in mouse plasma at 25 to 50 mg/kg, po
- Format: ADME, organism-based
metric: fraction unbound
Reply with just the number.

Lab note: CNc1ncc2cc(-c3ccc(-n4cncc(C)c4=O)cc3Cl)c(=O)n(CCOC)c2n1 gave fraction unbound of 0.059

====

Kindly supply the reported Papp B→A at 1 h, 10 µM values for the records listed here.
- experimental_protocol: Apparent permeability across basolateral to apical side in MDCK cells at 10 uM after 60 mins
- Assay type: ADME, cell-based, Canis lupus familiaris
- test_context: dog
The answer is to be given in nm/s; state only the numeric part.

Lab note: CNc1ncc2cc(-c3ccc(-n4cccc(C)c4=O)cc3Cl)c(=O)n(CCCN)c2n1 gave Papp B→A at 1 h, 10 µM of 3.3

Lab note: CNc1ncc2cc(-c3ccc(-n4cccc(C)c4=O)cc3Cl)c(=O)n(CC(F)(F)CN)c2n1 gave Papp B→A at 1 h, 10 µM of 154

====

- experimental_protocol: Fraction unbound in mouse plasma at 30 to 60 mg/kg, po
- Format: ADME, organism-based
metric: fraction unbound
Reply with just the number.

Lab note: CNc1ncc2cc(-c3ccc(-c4cccc(C)n4)cc3Cl)c(=O)n(C[C@H]3OC[C@H](N)CO3)c2n1 gave fraction unbound of 0.003

====

- experimental_protocol: Cmax in mouse at 100 mg/kg, ip
- Format: ADME, organism-based
- Parameters: dose 100 mg/kg, route intraperitoneal
- test_context: in vivo
metric: Cmax

Lab note: CNc1ncc2cc(-c3ccc(-n4ccc(C)cc4=O)cc3Cl)c(=O)n(C[C@H]3CNCCO3)c2n1 gave Cmax of 40 µM

====

- experimental_protocol: Lipophilicity, log D of the compound at pH 7.4
- Assay type: physicochemical
- test_context: buffer
Kindly supply the reported logD values for the records listed here.
Reply with just the number.

Lab note: CNc1ncc2cc(-c3ccc(-n4cccc(C)c4=O)cc3Cl)c(=O)n(CCO)c2n1 gave logD of 2.2

Lab note: CNc1ncc2cc(-c3ccc(-n4cccc(C)c4=O)cc3Cl)c(=O)n(CCCN)c2n1 gave logD of 0.05

Lab note: COCCn1c(=O)c(-c2ccc(-n3cccc(C)c3=O)cc2Cl)cc2cnc(NC3COC3)nc21 gave logD of 1.9

Lab note: CNc1ncc2cc(-c3ccc(-n4cccc(C)c4=O)cc3Cl)c(=O)n(CCC3(F)CN(C)C3)c2n1 gave logD of 1.8

Lab note: CCn1c(=O)c(-c2ccc(-n3cccc(C)c3=O)cc2Cl)cc2cnc(NC3COC3)nc21 gave logD of 2.5

Lab note: CNc1ncc2cc(-c3ccc(-n4cccc(C)c4=O)cc3Cl)c(=O)n(CCOC)c2n1 gave logD of 2.2

Lab note: CNc1ncc2cc(-c3ccc(-n4cccc(C)c4=O)cc3Cl)c(=O)n(CC(F)(F)CN)c2n1 gave logD of 1.8

Lab note: CNc1ncc2cc(-c3ccc(-n4cccc(C)c4=O)cc3Cl)c(=O)n(CCOC3CN(C)C3)c2n1 gave logD of 0.63

Lab note: CCn1c(=O)c(-c2ccc(-n3cccc(C)c3=O)cc2Cl)cc2cnc(NC)nc21 gave logD of 2.1

Lab note: CNc1ncc2cc(-c3ccc(-n4cccc(C)c4=O)cc3Cl)c(=O)n(CC3CCNCC3(F)F)c2n1 (racemic) gave logD of 0.9

These entries and their values trace back to ChEMBL document CHEMBL3817726.
